Please provide measured protein stability index for the entries that follow.
B1: RAB11B (parent)
chain: AVPTDEARAFAEKNNLSFIETSAL

- Variants of: B1
- EXPERIMENT: protein stability index of a GFP-peptide fusion (GPS, HEK-293T) (PSI 1-6); higher = more stable;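 note: lentivirally expressed fusions sorted by FACS into six bins by GFP to DsRed ratio, PSI derived from sequencing read proportions per bin multiplied by bin number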
- SETTINGS: c terminus: a fixed tail appended

# input Param item = AVPTDYARAFAEKNNLSFIETSAL [E6Y] ; retrieve measured protein stability index.
# output 1.67

# input GET /values?readout=protein stability index&item= AVPTDEARAFAEKNNLSFIETSAI [L24I]
# output 3.5

# input I am curious: what protein stability index value has been reported for AVPTDEARAFAEKNNLSSIETSAL [F18S] ?
# output 4.89

# input What value of protein stability index has been recorded for this entry: AVPTDEARAFAEKNNLYFIETSAL [S17Y]
# output 2.85

# input Fill in: protein stability index of AVPTDEARAFAEKNNLSFFETSAL [I19F] is ___
# output 4.37

# input // returns reported protein stability index for input AVPTDEARAFAEKNNQSFIETSAL [L16Q]
# output 4

# input Please report the recorded protein stability index for AVPTSEARAFAEKNNLSFIETSAL [D5S] .
# output 2.33

# input Please look up its protein stability index: AVPTDEARAFAEKNNLSFIETSML [A23M]
# output 2.3

# input Could you tell me which protein stability index is on file for AVPTDEARAFNEKNNLSFIETSAL [A11N] ?
# output 2.87

# input Given AVCTDEARAFAEKNNLSFIETSAL [P3C] , state its recorded protein stability index.
# output 2.77

# input Could you share which protein stability index value was measured for AVPTDEARAFAEKNNLSFIPTSAL [E20P] ?
# output 3.17

# input So what's the measured protein stability index for this one? AVPTDEAVAFAEKNNLSFIETSAL [R8V]
# output 3.04

# input Entry AVPTDEARAFAEKNNLSFIETSNL [A23N] has what protein stability index?
# output 2.88

# input protein stability index for AVPTDEARLFAEKNNLSFIETSAL [A9L] ?
# output 2.98

# input Would you kindly share the measured protein stability index for AVPTDEARAFAEKNNLSFIETGAL [S22G] ?
# output 2.85

# input Which protein stability index value is on record for AVPTDEARAFAEKNNNSFIETSAL [L16N] ?
# output 4.25

# input Given the variant AVPTDEARAFAEKNNLSFIETTAL [S22T] , what is its reported protein stability index?
# output 2.98

# input Requested field: protein stability index. Item: RVPTDEARAFAEKNNLSFIETSAL [A1R]
# output 2.26

# input Item under review: AVPTDERRAFAEKNNLSFIETSAL [A7R] . Reported protein stability index?
# output 2.6

# input What does the record list as protein stability index for AVPTDEARAFAEKENLSFIETSAL [N14E] ?
# output 4.35

# input Data request, read-out protein stability index, for AVPTDEARPFAEKNNLSFIETSAL [A9P]
# output 2.44

# input Look at this variant and give its reported protein stability index. AVPTTEARAFAEKNNLSFIETSAL [D5T]
# output 2.13

# input Request the reported protein stability index associated with AVPTDEARAFAEGNNLSFIETSAL [K13G]
# output 3.17

# input Tell me the measured protein stability index of AVPTDEARAFAEKNNLSFIETSRL [A23R] , please.
# output 2.47

# input GET /values?readout=protein stability index&item= AVPTDEARAFAEKNNLSFAETSAL [I19A]
# output 4.6

# input Entry under review: AVPTDEARAFAEKNNLSHIETSAL [F18H] . Reported protein stability index?
# output 4.51

# input # lookup: protein stability index of AVPTDEPRAFAEKNNLSFIETSAL [A7P]
# output 2.86

# input What value of measured protein stability index is listed for AVPTDEVRAFAEKNNLSFIETSAL [A7V] ?
# output 2.7

# input Record request: protein stability index value, item AVPTDEAMAFAEKNNLSFIETSAL [R8M]
# output 2.45

# input Name the reported protein stability index value associated with the variant AVPTDEARAFAEKNNLSFIEISAL [T21I]
# output 2.3

# input Query: protein stability index; subject: AVPTDEARAFAEKNNRSFIETSAL [L16R]
# output 4.42

# input // query protein stability index value for entry CVPTDEARAFAEKNNLSFIETSAL [A1C]
# output 2.43

# input So what's the measured protein stability index for this one? AKPTDEARAFAEKNNLSFIETSAL [V2K]
# output 2.52

# input Any idea what its protein stability index is? The variant is AVPTDEARAFWEKNNLSFIETSAL [A11W]
# output 2.48

# input What value of protein stability index has been recorded for this entry: AVPTDEHRAFAEKNNLSFIETSAL [A7H]
# output 2.23

# input I'd like to know its protein stability index. The variant in question is AVPTDEATAFAEKNNLSFIETSAL [R8T]
# output 2.67

# input Fill in: protein stability index of AVPTDEARAFAEKNNLSFIETSCL [A23C] is ___
# output 2.9

# input Look at this variant and give its reported protein stability index. AVPTDEARAFAECNNLSFIETSAL [K13C]
# output 2.47

# input Please give the measured protein stability index for this variant: AVPTLEARAFAEKNNLSFIETSAL [D5L]
# output 2.46

# input Data request, read-out protein stability index, for AVPTDEARAFAEKNNLSFCETSAL [I19C]
# output 4.34

# input Could you share which protein stability index value was measured for AVPTDEARAFAEKNNLSFIETSAM [L24M] ?
# output 3.13

# input Could you share which protein stability index value was measured for AVPTDEARADAEKNNLSFIETSAL [F10D] ?
# output 4.06

# input Which protein stability index value is on record for AVPTDEARAFAEKNNLSFISTSAL [E20S] ?
# output 3.18

# input Report protein stability index for AVPSDEARAFAEKNNLSFIETSAL [T4S] please.
# output 2.6

# input Quick one: protein stability index for AVPTDEARAFAEKNNLSFIQTSAL [E20Q] ?
# output 3.35

# input Endpoint output: protein stability index of AVPTDEARAFAEKNNLGFIETSAL [S17G] . Value?
# output 3.7
